Assignment: determine reported protein stability index for the given sequences.
Test system: Saccharomyces cerevisiae
Assay: protein stability index of tFT-peptide fusion in wild type (PSI (0-1 scale)); higher = more stable (slower turnover)
Conditions: genetic background: wild type

Q: Entry RSLRLLLPLYFR , system Saccharomyces cerevisiae: what protein stability index was measured?
Result: 0.289

Q: Give Saccharomyces cerevisiae protein stability index for ARWRVGLWRDAS
Result: 0.6

Q: I'm curious: which protein stability index was measured for VRVAVGGWRLVG tested on Saccharomyces cerevisiae?
Result: 0.111

Q: Param readout= protein stability index; system= Saccharomyces cerevisiae; entry= GLYMCSVGCWER ; returns value.
Result: 0.632

Q: Provide value of protein stability index for this record tested with Saccharomyces cerevisiae: RLIQPLPVQFPN
Result: 0.622

Q: Param readout= protein stability index; system= Saccharomyces cerevisiae; entry= RSLRVLLPLHFR ; returns value.
Result: 0.517

Q: Tell me reported protein stability index for AITLPMCPLLLRS , tested with Saccharomyces cerevisiae.
Result: 0.261

Q: Notebook: pull reported protein stability index for Saccharomyces cerevisiae, entry ARWRVGLWRGTS
Result: 0.318

Q: # returns recorded protein stability index (system: Saccharomyces cerevisiae) for PSLAASFWRVVGG
Result: 0.651

Q: Form field: protein stability index recorded for PDKRNLLIKLLN with Saccharomyces cerevisiae (enter value)
Result: 0.124

Q: Any idea what protein stability index came out for PDKRNALIKLLN on Saccharomyces cerevisiae?
Result: 0.142

Q: Field: protein stability index (Saccharomyces cerevisiae). Entry: KKHKKGQKQKPN
Result: 0.617

Q: Form field - read-out: protein stability index; system: Saccharomyces cerevisiae; submitted item: PSLMASFWRVVG
Result: 0.131

Q: Find protein stability index (Saccharomyces cerevisiae) for the entry CTSCGYKFRTNNN
Result: 0.674

Q: # get_value(readout= protein stability index, system= Saccharomyces cerevisiae) for RLIQPLPVYFLN;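 note: PSI derived as read-weighted mean over the 8 sorting bins, only variants exceeding 10 total reads kept, mCherry placed adjacent to the peptide and sfGFP distal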
Result: 0.0711

Q: Kindly state the measured protein stability index obtained for LVVYLSCIACIN with Saccharomyces cerevisiae.
Result: 0.0141

Q: Notebook: pull reported protein stability index for Saccharomyces cerevisiae, entry WKHKKGQKQKIN
Result: 0.135

Q: Field: protein stability index (Saccharomyces cerevisiae). Entry: DVTRLDAIYFRI
Result: 0.481

Q: Value wanted: protein stability index (Saccharomyces cerevisiae) of entry ARWHVGLWRGAS
Result: 0.365
